# Subject of test: T1, murine IL-11 (mouse, UniProt P47873 22-199)
# T1 sequence: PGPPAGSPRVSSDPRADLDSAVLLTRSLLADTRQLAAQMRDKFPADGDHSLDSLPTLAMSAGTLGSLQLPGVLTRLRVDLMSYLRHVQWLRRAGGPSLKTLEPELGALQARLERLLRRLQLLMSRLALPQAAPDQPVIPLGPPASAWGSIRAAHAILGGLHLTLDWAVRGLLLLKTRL
# Protocol text: cell-based or functional assay
Give measured RGA potency (mean) for each item. Keep answers brief.

TPP-31294 (antibody, IgG4, V domains shown, hIgG4 SPLE, lambda) VH: EVQLLESGGGLVQPGGSLRLSCAASGFTFSHYDMNWLRQAPGKGLEWVAVISYDGSNKFYADFVKGRFTISRDNSKNTLYLQMNSLRAEDTAVYYCARTPGSHFDYWGQGTLVTVSS VL: QSVLTQPPSASGTPGQRVTISCSGSSSNIGNNAVNWYQQLPGTAPKLLIYYDDLLPSGVPDRFSGSKSGTSASLAISGLRSEDEADYYCSAWDDSLNGVVFGGGTKLTVL: < 170 nM
TPP-31285 (antibody, IgG4, V domains shown, hIgG4 SPLE, lambda) VH: EVQLLESGGGLVQPGGSLRLSCAASGFTFSHYDMNWLRQAPGKGLEWVGVISYDGSNKFYADFVKGRFTISRDNSKNTLYLQMNSLRAEDTAVYYCARTPGSHFDYWGQGTLVTVSS VL: QSVLTQPPSASGTPGQRVTISCSGSSSNIGNNAVNWYQQLPGTAPKLLIYYDDLLPSGVPDRFSGSKSGTSASLAISGLRSEDEADYYCAAWDDSLNGVVFGGGTKLTVL: < 170 nM

Now consider the entry below.
Lab note: TPP-31288 (antibody, IgG4, V domains shown) VH: EVQLLESGGGVVQPGGSLRLSCAASGFTFSHYDMNWLRQAPGKGLEWVGVISYDGSNKFYADFVKGRFTISRDNSKNTLYLQMNSLRAEDTAVYYCARTPGSHFDYWGQGTLVTVSS VL: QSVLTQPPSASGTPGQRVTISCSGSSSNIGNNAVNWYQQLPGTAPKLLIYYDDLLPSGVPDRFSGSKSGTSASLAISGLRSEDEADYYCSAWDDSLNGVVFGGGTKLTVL gave RGA potency (mean) of < 170 nM
